# reported melting point; entries follow
Return type: number; implicit unit °C.

{"Compound": "O=C(Nc1ccccc1)c1ccccc1", "Reported": 163}
{"Compound": "CCCOCOCCC", "Reported": -97.3}

Summary for this compound, C/C=C(\C)c1ccccc1 : melting point is -23.5

Entry under test: Nc1nc(F)nc2c1ncn2[C@@H]1O[C@H](CO)[C@@H](O)[C@@H]1O . Its melting point was 260

Just so you know, measured melting point for c1ccc(-c2cccc(-c3ccccn3)n2)nc1 came out at 90

###

# Experimental Parameters: fish
Record t whenever log10 biotransformation half-life (days) is at 0.04 or higher; record f when lower.

Problem: Tell me whether log10 biotransformation half-life (days) is at least 0.04 here: CCCCC(C)CCCC(C)C (configuration not stated)
Solution: t

Problem: Hi, just wondering whether Nc1cccc2c(N)cccc12 shows log10 biotransformation half-life (days) of 0.04 or higher.
Solution: f

Problem: Form field: log10 biotransformation half-life (days) at least 0.04? Entry: CC(C)C(C(=O)OC(C#N)c1cccc(Oc2ccccc2)c1)c1ccc(Cl)cc1 (configuration not stated)
Solution: t

###

Parameter Measured: boiling point (°C)
Number in °C, nothing else.

{"Compound": "C/C=C\\C(C)(C)C", "boiling point / °C": 80.4}
{"Compound": "CC1CC(C)(C)CCC1=O (configuration not stated)", "boiling point / °C": 191}
{"Compound": "Cc1cnc(C)cn1", "boiling point / °C": 155}
{"Compound": "S=C1SCCS1", "boiling point / °C": 307}
{"Compound": "CC1(C)C(=O)[C@@]2(C)CC[C@@H]1C2", "boiling point / °C": 193}
{"Compound": "C[C@@H]1CC[C@@H](C)S1", "boiling point / °C": 142}
{"Compound": "COc1ccccc1F", "boiling point / °C": 154}
{"Compound": "Cc1cc(Cl)ccc1O", "boiling point / °C": 209}

The reported boiling point of the compound CCC=Cc1ccccc1 was 199

ClC1(Cl)CCCCC1 yielded boiling point of 171

CCC[C@@H](O)CC has a reported boiling point of 135

What the record says about C=C(C)[C@@H]1CC[C@@H](C)[C@@H](O)C1 : boiling point is 224

So for CC(C)CC(C)C(C)(C)C (configuration not stated) , the logged boiling point turned out to be 148

###

Catalogue of boiling point values
Answer format: numeric, °C implied, no suffix.

Solved cases (5 shown):
{"Chem Smiles": "CCC=CCCO", "Reported": 156}
{"Chem Smiles": "O=C(O)C(F)(F)C(F)(F)F", "Reported": 96.5}
{"Chem Smiles": "CC(=O)Oc1ccc(C)cc1C", "Reported": 226}
{"Chem Smiles": "CC(C)(CCl)c1ccccc1", "Reported": 223}
{"Chem Smiles": "C=C(C)C(=C)C", "Reported": 68.8}

Proceeding to the next compound to report its boiling point.
Lab note: CNCCO gave boiling point of 158

###

Each entry falls into one class according to its melting point; the ranges are LOW: < 60 °C; MID: ≥ 60 °C and < 100 °C; HIGH: ≥ 100 °C

The examples below pair each entry with its known result.
{"Compound": "CC(=O)Nc1ccc(OCC(O)CNC(C)C)cc1 (configuration not stated)", "Label": "HIGH"}
{"Compound": "CC(=O)Nc1cccc(Cl)c1", "Label": "MID"}

Consider the record given below.
Problem: Into which category would you place NCC(CC(=O)O)c1ccc(Cl)cc1 (configuration not stated) ?
Solution: HIGH
